Experiment: Kinetic solubility of compound by measuring concentration at pH 7.4 in saturated PBS buffer by UV LCMS/MS using calibration curves. The assay has been performed by Enamine biological services, Bienta Ltd.The protocol is publicly available: dx.doi.org/10.17504/protocols.io.j8nlk8y41l5r/v1
Type: physicochemical
Condition parameters: PBS buffer
Metric name: solubility kinetic (µM)

Known solubility kinetic results, listed for orientation:
CC(C)[C@@H](Nc1ncnc2[nH]cc(C(=O)NC3CC3)c12)c1ccc2c(c1)S(=O)(=O)CCC2 = 257
CC(C)[C@H](Nc1ncnc2[nH]ccc12)c1ccc2c(c1)S(=O)(=O)CCC2 = 374
CC(C)[C@@H](Nc1ncnc2[nH]c(C(=O)N[C@H]3CCN(C)C3)cc12)c1ccc2c(c1)S(=O)(=O)CCC2 = 392
CNC(=O)c1cc2c(N[C@@H](c3ccc4c(c3)S(=O)(=O)CCC4)C(C)C)ncnc2[nH]1 = 369
CCNC(=O)c1cc2c(N[C@@H](c3ccc4c(c3)S(=O)(=O)CCC4)C(C)C)ncnc2[nH]1 = 336

(a) CNC(=O)Cn1cc(-c2cc3c(N[C@@H](c4ccc5c(c4)S(=O)(=O)CCC5)C(C)C)ncnc3[nH]2)cn1
(b) CNC(=O)c1cccc(-c2cc3c(N[C@@H](c4ccc5c(c4)S(=O)(=O)CCC5)C(C)C)ncnc3[nH]2)c1
Ask: Thinking about recorded solubility kinetic values, which is higher, a or b ? Lab note: record the label of whichever item you select.
Reply: a

(1) CC(C)[C@@H](Nc1ncnc2[nH]c(-c3cnn(CC(N)=O)c3)cc12)c1ccc2c(n1)OCCO2
(2) CC(C)[C@@H](Nc1ncnc2[nH]c(-c3cnn(CCC(N)=O)c3)cc12)c1ccc2c(c1)OCCO2
(3) CC(C)[C@H](Nc1ncnc2[nH]cc(C(=O)NC3CC3)c12)c1ccc2c(c1)S(=O)(=O)CCC2
Ask: Sort these compounds on solubility kinetic so the largest reading comes first. Order the labels as requested and give them as your answer.
Reply: 1, 2, 3

###

Experiment: Kinetic solubility of compound by measuring concentration at pH 7.4 in saturated PBS buffer by UV LCMS/MS using calibration curves. The assay has been performed by Enamine biological services, Bienta Ltd.The protocol is publicly available: dx.doi.org/10.17504/protocols.io.j8nlk8y41l5r/v1
Format: physicochemical
Condition parameters: buffer
Metric name: Solubility (mean) (µM)

Observe how each entry below is paired with its result.
Cn1ncc(-c2cc3c(N[C@@H](c4ccc5c(n4)OCCO5)C(C)(C)C)ncnc3[nH]2)c1C#N = 24
CC(C)[C@@H](Nc1ncnc2[nH]ccc12)c1ccc2c(c1)S(=O)(=O)CCC2 = 386

(I) CNC(=O)c1cc2c(N[C@@H](c3ccc4c(c3)S(=O)(=O)CCC4)C(C)C)ncnc2[nH]1
(II) CNC(=O)c1c[nH]c2ncnc(N[C@@H](c3ccc4c(c3)S(=O)(=O)CCC4)C(C)C)c12
Ask: Returns: the argument ( I or II ) having the larger Solubility (mean). State your choice using its label.
Reply: I

###

Experiment: Kinetic solubility of compound by measuring concentration at pH 7.4 in saturated PBS buffer by UV LCMS/MS using calibration curves. The assay has been performed by Enamine biological services, Bienta Ltd.The protocol is publicly available: dx.doi.org/10.17504/protocols.io.j8nlk8y41l5r/v1
Format: physicochemical
Condition parameters: PBS buffer
Metric name: solubility kinetic (µM)

CNC(=O)c1c[nH]c2ncnc(N[C@@H](c3ccc4c(c3)OCCO4)C(C)C)c12 = 319
CNC(=O)Cn1cc(-c2cc3c(N[C@H](c4ccc5c(c4)S(=O)(=O)CCC5)C(C)C)ncnc3[nH]2)cn1 = 323
CC(C)[C@@H](Nc1ncnc2[nH]ccc12)c1ccc2c(c1)NC(=O)CO2 = 389
CC(C)[C@H](Nc1ncnc2[nH]c(-c3cnn(CC(N)=O)c3)cc12)c1ccc2c(c1)OCCO2 = 280
COc1ccc([C@H](Cc2nnn[nH]2)NC(=O)c2ncnc3[nH]ccc23)cc1 = 367

Values compiled from ChEMBL document CHEMBL5442663.
